# testProtocol: AUC (0 to infinity) in cynomolgus monkey at 1 mg/kg, po administered as cassette dose by LC-MS/MS analysis
# Format: ADME, organism-based, Macaca fascicularis
# Set-up: time infinity, route oral, dose 1 mg/kg
# settings: in vivo
Outcome: 1 for AUC(0-inf) of at least 200 ng·h/mL; -1 for anything lower.

# smi, labelValue
records = [
    ("CCCCN(c1nc2c(C(=O)O)cccc2o1)[C@H](C)c1ccc(-c2cc(Cl)ccc2-c2nc(=O)o[nH]2)cc1", 1),
    ("CCCCN(c1nc2c(C(=O)O)cccc2o1)[C@H](C)c1ccc(-c2cc(F)ccc2-c2nc(=O)o[nH]2)cc1", 1),
    ("CCCCN(c1nc2c(C(=O)O)cccc2o1)[C@H](C)c1ccc(-c2ccccc2-c2nnn[nH]2)cc1", 1),
]

Prompt line: Does AUC(0-inf) meet or surpass 200 ng·h/mL for `CCCCN(c1nc2c(C(=O)N(C)C)cccc2o1)[C@H](C)c1ccc(-c2ccccc2-c2nnn[nH]2)cc1` ?
Response line: -1

Prompt line: Does AUC(0-inf) meet or surpass 200 ng·h/mL for `C[C@H](c1ccc(-c2cc(F)ccc2-c2nc(=O)o[nH]2)cc1)N(CC1CC1)c1nc2c(C(=O)O)cccc2o1` ?
Response line: 1

Prompt line: Does AUC(0-inf) meet or surpass 200 ng·h/mL for `Cc1ccc(-c2nc(=O)o[nH]2)c(-c2ccc([C@@H](C)N(CC3CC3)c3nc4c(C(=O)O)cccc4o3)cc2)c1` ?
Response line: 1

Prompt line: Does AUC(0-inf) meet or surpass 200 ng·h/mL for `CCCCN(c1nc2ccccc2o1)[C@H](C)c1ccc(-c2ccccc2-c2nnn[nH]2)cc1` ?
Response line: -1

Prompt line: Does AUC(0-inf) meet or surpass 200 ng·h/mL for `CCCCN(c1nc2c(-c3nccn3C)cccc2o1)[C@H](C)c1ccc(-c2ccccc2-c2nnn[nH]2)cc1` ?
Response line: -1

Prompt line: Does AUC(0-inf) meet or surpass 200 ng·h/mL for `C[C@H](c1ccc(-c2ccccc2-c2nc(=O)o[nH]2)cc1)N(CC1CC1)c1nc2c(C(=O)O)cccc2o1` ?
Response line: 1

Prompt line: Does AUC(0-inf) meet or surpass 200 ng·h/mL for `CCCCN(c1nc2c(-c3ccccn3)cccc2o1)[C@H](C)c1ccc(-c2ccccc2-c2nnn[nH]2)cc1` ?
Response line: 1

The reported measurements were obtained from ChEMBL document CHEMBL4725330.
